Biological target: T1, SH2 domain of Abl1 (recombinant, on protein microarray) (human, UniProt P00519 127-217)
T1 chain: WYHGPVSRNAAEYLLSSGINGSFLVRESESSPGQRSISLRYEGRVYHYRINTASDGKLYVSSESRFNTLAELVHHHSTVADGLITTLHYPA
Where no end group is shown, it is not given here. [ ]: non-standard residue; d: D form. pY = N[C@@H](Cc1ccc(OP(=O)(O)O)cc1)C(=O)O
Quantity: pKd
One number for each entry, as −log10 of the molar value.

query: For the binder KYVDSEGHL[pY]TVPIREQG (peptide, UniProt Q03135 5-22, looked up, also: fluorescent label (position not given here), caveolin-1 (Cav1), human, residues 5-22; also called Tyr14-Cav1 phosphopeptide (18 amino acids); source: synthetic peptide, purified to >95% by preparative reverse phase HPLC) [fluorescently labeled Tyr14-Cav1 phosphopeptide (residues 5-22 of Cav1, phosphorylated on Tyr14)] , what pKd is on record?
result: 5.78
